Tested on: Human immunodeficiency virus 1
MEASUREMENT_NOTES: Antiviral activity against HIV1 subtype B harboring protease polymorphism at M36 position and L10F, V82A mutant gene infected in human cord blood mononuclear cells assessed as inhibition of viral replication after 48 hrs by luciferase reporter gene assay
Format: functional, organism-based
STUDY_CONDITIONS: Human immunodeficiency virus 1, subtype B
READOUT: pEC50
// scale note: pEC50 = -log10(conc_M); give the bare number

Q: pEC50 for Cc1cccc(C)c1OCC(=O)N[C@@H](Cc1ccccc1)[C@@H](O)C[C@H](Cc1ccccc1)NC(=O)[C@H](C(C)C)N1CCCNC1=O ?
Ans: 6.71

---

System: Human immunodeficiency virus 1
MEASUREMENT_NOTES: Antiviral activity against HIV1 subtype CRF02_AG harboring protease M46, I47A, I84V mutant gene and polymorphism at I36 position infected in human cord blood mononuclear cells assessed as inhibition of viral replication on day 7 by RT activity assay
STUDY_CONDITIONS: Human immunodeficiency virus 1, subtype CRF02_AG, 7 days
READOUT: pEC50
// scale note: pEC50 = -log10(conc_M); give the bare number

Q: pEC50 for Cc1cccc(C)c1OCC(=O)N[C@@H](Cc1ccccc1)[C@@H](O)C[C@H](Cc1ccccc1)NC(=O)[C@H](C(C)C)N1CCCNC1=O ?
Ans: 5.83

---

System: Human immunodeficiency virus 1
MEASUREMENT_NOTES: Antiviral activity against HIV1 subtype C harboring protease L32I, M46I/M, L76V mutant gene and polymorphism at I36 position infected in human cord blood mononuclear cells assessed as inhibition of viral replication after 48 hrs by luciferase reporter gene assay
Assay type: functional, organism-based
STUDY_CONDITIONS: Human immunodeficiency virus 1, subtype C
READOUT: pEC50
// scale note: pEC50 = -log10(conc_M); give the bare number

Q: pEC50 for Cc1cccc(C)c1OCC(=O)N[C@@H](Cc1ccccc1)[C@@H](O)C[C@H](Cc1ccccc1)NC(=O)[C@H](C(C)C)N1CCCNC1=O ?
Ans: 6.80
